# EXPERIMENTAL TARGET: PfPFT (Plasmodium falciparum, UniProt Q8I503+Q8IHP6)
# Sequence (Q8I503 1-521): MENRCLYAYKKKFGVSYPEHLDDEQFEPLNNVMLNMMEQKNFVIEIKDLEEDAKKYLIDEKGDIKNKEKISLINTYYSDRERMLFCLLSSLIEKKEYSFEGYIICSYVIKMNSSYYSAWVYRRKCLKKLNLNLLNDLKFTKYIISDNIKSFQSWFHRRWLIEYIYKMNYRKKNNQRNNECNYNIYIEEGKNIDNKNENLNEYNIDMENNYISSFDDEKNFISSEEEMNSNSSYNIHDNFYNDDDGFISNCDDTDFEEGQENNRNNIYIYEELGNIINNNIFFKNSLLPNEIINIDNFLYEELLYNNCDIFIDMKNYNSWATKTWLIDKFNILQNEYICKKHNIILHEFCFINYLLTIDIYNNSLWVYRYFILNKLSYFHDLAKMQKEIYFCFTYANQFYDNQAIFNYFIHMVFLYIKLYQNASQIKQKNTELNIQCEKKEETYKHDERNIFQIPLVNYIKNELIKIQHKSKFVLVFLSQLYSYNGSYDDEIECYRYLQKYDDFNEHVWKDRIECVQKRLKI
# Sequence (Q8IHP6 1-923): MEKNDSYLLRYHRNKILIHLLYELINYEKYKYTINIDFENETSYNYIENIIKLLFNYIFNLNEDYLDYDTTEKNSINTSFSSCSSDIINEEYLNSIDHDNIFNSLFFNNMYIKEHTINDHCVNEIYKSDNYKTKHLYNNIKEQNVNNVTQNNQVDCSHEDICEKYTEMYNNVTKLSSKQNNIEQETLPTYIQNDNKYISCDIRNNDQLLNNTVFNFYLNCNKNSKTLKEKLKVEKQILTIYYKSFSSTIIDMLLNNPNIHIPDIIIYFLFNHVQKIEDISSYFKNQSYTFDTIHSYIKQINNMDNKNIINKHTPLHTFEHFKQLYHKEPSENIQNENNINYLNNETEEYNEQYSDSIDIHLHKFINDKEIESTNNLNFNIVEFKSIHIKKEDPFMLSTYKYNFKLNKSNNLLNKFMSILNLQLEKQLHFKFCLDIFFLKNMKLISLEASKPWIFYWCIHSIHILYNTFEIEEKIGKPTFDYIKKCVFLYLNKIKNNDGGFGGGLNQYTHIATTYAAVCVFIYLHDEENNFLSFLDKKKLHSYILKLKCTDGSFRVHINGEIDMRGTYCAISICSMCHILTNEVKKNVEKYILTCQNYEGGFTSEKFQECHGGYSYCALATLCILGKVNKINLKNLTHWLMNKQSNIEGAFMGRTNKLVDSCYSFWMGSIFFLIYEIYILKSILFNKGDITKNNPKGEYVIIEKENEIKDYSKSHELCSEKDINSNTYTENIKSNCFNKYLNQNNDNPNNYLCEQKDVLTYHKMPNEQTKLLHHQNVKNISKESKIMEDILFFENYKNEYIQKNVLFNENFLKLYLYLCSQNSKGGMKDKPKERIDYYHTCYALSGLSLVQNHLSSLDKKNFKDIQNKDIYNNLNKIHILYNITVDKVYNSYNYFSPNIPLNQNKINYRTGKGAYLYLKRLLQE
# EXPERIMENT NOTES: PfPFT inhibition, scintillation proximity assay with partially purified PfPFT
# MEASUREMENT CONDITIONS: concentration decreasing transferase activity twofold
READOUT: IC50

Enquiry: Provide measured IC50 value, entry: Cn1cnc(S(=O)(=O)N(CCN(Cc2cncn2C)c2ccc(C#N)cc2)CC2CCN(C(=O)OC(C)(C)C)CC2)c1 [Compound 8v]
Return: 1.2 nM

Enquiry: Return IC50 for the following compound: Cn1cnc(S(=O)(=O)N(CCN(Cc2cncn2C)c2ccc(C#N)cc2)CC2CCN(c3ncccn3)CC2)c1 [Compound 8w]
Return: 1.5 nM

Enquiry: Provide only the value of recorded IC50 for Cn1cnc(S(=O)(=O)N(CCN(Cc2cncn2C)c2ccc(C#N)cc2)CC(=O)NC(C)(C)C)c1 [Compound 8o]
Return: > 1000 nM

Enquiry: Supply measured IC50 of Cc1ccccc1CN(CCN(Cc1cncn1C)c1ccc(-c2ccccc2)cc1)S(=O)(=O)c1cn(C)cn1 [Compound 8c] in your reply.
Return: 8 nM

Enquiry: Tell me its IC50 given Cn1cncc1CN(CCN(Cc1ccccc1)S(=O)(=O)c1ccccn1)c1ccc(C#N)cc1 [Compound 8g] as the entry.
Return: 2.8 nM

Enquiry: Consider the compound Cn1cnc(S(=O)(=O)N(CCN(Cc2cncn2C)c2ccc(C#N)cc2)Cc2ccc(-n3cccc3)cc2)c1 [Compound 8ai] . State its measured IC50.
Return: 11 nM
